MEASURE: melting point

Answered cases to consult:
CC1=NN=C(N2N=C(c3ccc([N+](=O)[O-])cc3)c3cc4c(cc3CC2C)OCO4)SC1 (stereo not given): 203 to 204 °C
CCCC1=C([N+](=O)[O-])C(c2ccccc2Br)c2c[nH]nc2N1 (stereo not given): 226 °C
CC(C)(C)OC(=O)N1CCC(Oc2ccccc2C(C)(C)C)CC1: 102 to 103 °C
CC1(CCC(=O)CCCc2cccc([N+](=O)[O-])c2)C(=O)CCC1=O: 81 to 83 °C

Note to self: melting point recorded for CCc1[nH]n(C2CCCC2)c2nc(Cc3ccccn3)nc(=O)c1-2 was 120 to 122 °C

###

This listing pairs compounds with measured melting point.

Before answering, review these 2 worked examples.
COc1cc(OC)c(F)c(N2Cc3cnc(S(C)=O)nc3N(C3CC3)C2=O)c1F (stereo not drawn): 198 to 200 °C
Cc1cc(-c2ccccc2)n2nc(S(C)(=O)=O)nc2n1: 158 to 159 °C

Could you now consider this next compound?
The compound listed as CC(=O)Nc1ccc(C(=O)N2CCN(CCc3ccc(Cl)cc3)CC2)cc1 shows melting point equal to 147 to 149 °C

###

MEASURE: melting point

Known melting point results, listed for orientation:
O=C1C=CC(=O)N1c1ccccc1SCCSc1ccccc1N1C(=O)C=CC1=O: 110 to 115 °C
CC12C=CC(=O)C=C1CCC1C2C(=O)CC2(C)C(C(=O)CO)CCC12 (configuration not stated): 203 to 206 °C
COC(=O)CCC(=O)SCC(=O)NC(C)=O: 111 to 113 °C
NC(=O)CN1CCN(C(=O)Cc2ccc(OC(=O)c3ccc([N+](=O)[O-])cc3)cc2)CC1: 192 to 196 °C
NC(=O)c1cc2c(c3nc(O)c(O)nc13)CCCC2: > 300 °C
CC(NC(=O)Oc1cccc2c1C1(C)CCN(C)C1N2C)c1ccccc1 (configuration not stated): 151 to 155 °C
CCCCn1c(=O)c(NC(=O)Nc2c(C(C)C)cccc2C(C)C)c(-c2cccc(OCCO)c2)c2cccnc21: 106 to 110 °C
CC(O)Cn1c(COC(N)=O)nc(C(C)C)c1Sc1cc(Cl)cc(Cl)c1 (configuration not stated): 82 °C

Measured melting point of COc1ccc(CCN2C=CC=C3C2=Nc2cc(C(F)(F)F)ccc2S(=O)(=O)N3C)cc1 : 43 to 44 °C

get_value(item= COCCNC(=O)Nc1c(C)c(C)c2c(c1C)C(c1ccc(C(C)C)cc1)CO2 (configuration not stated) , readout=melting point) returns 172 to 173 °C

###

The following compounds are shown together with reported melting point values.

Cc1nc2cnccc2n1-c1ccc(OCc2cccc(C(=O)O)c2)cc1: 255 to 258 °C
Cc1cccc2nc(-c3ccc(Cl)cc3)c(C(N)=O)c(=O)n12: 202 to 204 °C
COc1cc(C(O)C(CO)[N+](=O)[O-])cc(OC)c1OC (centres undefined): 155 to 159 °C

Recorded result, Cc1cc(O)c(F)cc1[N+](=O)[O-] , melting point: 110 to 112 °C

Quick note, melting point for NC(CO)(CCCc1ccc(Sc2cccc(OCc3ccccc3)c2)cc1Cl)CCP(=O)(O)O (centres undefined) landed at 193 to 196 °C

Input CCOC(=O)c1ccc(OCc2nc(-c3ccco3)oc2C)c(OC)c1 . Output melting point: 133 to 134 °C

So for COc1ccc2c(C)c(CCCl)c(=O)oc2c1OC , the logged melting point turned out to be 137 to 139 °C

melting point measured on CN(C)C(=S)SC(C[N+](=O)[O-])c1ccco1 (centres undefined) = 67 to 68 °C

According to the records, this compound COCc1nc2cc3c(cc2c(=O)[nH]1)C(Nc1ccc(C(=O)OC(C)(C)C)cc1)CC3 (racemic) displays melting point of > 122 °C

###

MEASURE: melting point

COc1cc(OC)c(-c2cc3ccccc3n2C)cc1C=CC(=O)c1ccc(S(=O)(=O)N(C)C)cc1: 120 to 122 °C

Query CC(=O)NNc1nnc(-c2ccccc2)c(-c2ccccc2)n1 yields melting point of 166 to 168 °C

For record O=C1Nc2cc(NC(=O)c3c[nH]cc(-c4ccc(F)cc4)c3=O)c(F)cc2/C1=C/c1ccc[nH]1 the listed melting point is > 300 °C

In plain terms, Nc1ccc(-n2cc(C(F)(F)F)ccc2=O)c(Cl)c1 has a documented melting point of 136 to 138 °C

Given item CCOC(=O)C1=C(CCl)N2CCOC2(C)C(C(=O)OC)C1c1ccccc1Cl (centres undefined) , the value recorded as its melting point is 142 to 143 °C

###

melting point for assorted compounds

CN(CCCNC(=O)c1cc(Cl)cc2nc3ccccc3nc12)CCCNC(=O)c1cc(Cl)cc2nc3ccccc3nc12: 169 to 170 °C

The value of melting point measured for the compound O=P(O)(O)CCCCC(F)(F)C(F)(F)C(F)(F)C(F)(F)F turned out to be 123 to 124 °C

Noted for COCCn1cc(C(=O)NCc2ccc(Cl)cc2)c(=O)c2cc(CN(C)C[C@@H](O)c3ccco3)sc21 : its melting point reads 121 to 122 °C

Documented melting point of COc1ccc2c(c1)C(CCNC(=O)C(C)C)CC2 (configuration not stated) : 104 to 105 °C

Reported melting point of CCCCOCCOc1ccc(-c2ccc3c(c2)C=C(C(=O)O)CCN3CCCOC)cc1 : 99 to 101 °C

Lab book: melting point of Nc1sc(-c2cccs2)c(CN(C2CCCCC2)C2CCCCC2)c1C(=O)c1ccc(Cl)cc1 noted as 197 to 199 °C

Recorded melting point (compound CC(C)(C)Nc1nc2ccc(Cl)cc2c2nc(-c3ccco3)nn12 ): > 330 °C

Record O=C(Nc1ccncc1)C1c2ccccc2CCc2ccccc21 , field melting point: 148 to 149 °C

The compound CCc1c(-c2ccc(O)cc2)c2c(COC)cc3cccc1n32 showed melting point equal to > 130 °C

# compound C=CN1NCC2CC3=C(C=CC(c4ccc(F)cc4)C3)CC21C (configuration not stated) ; its melting point = 70 to 72 °C

Form: compound = CC(C)(CNc1ccc(C2=NNC(=O)CC2)cc1)NCC(O)COc1ccccc1 (configuration not stated) ; melting point = 147 to 148 °C

The value of melting point measured for the compound O=C(Nc1cccc(Cc2nnn[nH]2)c1)C(F)(F)C(F)(F)C(F)(F)F turned out to be 148 to 151 °C

For reference, reported melting point for Cc1cc(C(=O)N2CCCC(C)C2)ccc1[N+](=O)[O-] (configuration not stated) stands at 82 to 82.8 °C

Per the record, Cc1ccc(C)n1-c1nc(S(=O)(=O)Nc2c(Cl)cccc2Cl)n[nH]1 has melting point of 107 to 108 °C

// melting point value for CCC(CC)c1ccc(Cl)c2nc(Nc3cc(Cl)cc(Cl)c3)n(CCCCO)c12 : 208 to 210 °C

In plain terms, COc1ccc(OC)c(S(=O)(=O)NC(=O)C(C)Br)c1 (configuration not stated) has a documented melting point of 116 to 118 °C

GET /value?item= CCOC(=O)COc1ccc(-c2c(Cl)c(CN3C(=O)CCC3=O)nc3sc4c(c23)CCS(=O)(=O)C4)cc1 &field=melting point returns 215 to 216 °C

###

MEASURE: melting point

Cn1c(C(F)(F)F)cc(=O)n(-c2cc(Oc3ncccc3[N+](=O)[O-])c(Cl)cc2F)c1=O: 177 to 179 °C
C[C@H]1COc2c(N3CC(C)(N)C4(CC4)C3)c(F)cc3c(=O)c(C(=O)O)cn1c23 (some centres not stated): 268 to 270 °C
COc1ccc2c(c1)CCC1C2CCC2(C)C(O)C(C)CC12 (configuration not stated): 100 to 102 °C

For reference, reported melting point for COCCOC(=O)C1=C(C(F)F)NC(C)=C(C(=O)OC(C)C)C1c1cccc(Cl)c1Cl (configuration not stated) stands at 127 to 128 °C

Reported melting point of COC(=O)c1ccc2c(c1)C(=O)C(CC=O)C2 (racemic) : 92 °C

Recorded melting point (compound COC(=O)C1CC(C#N)(c2ccc(OC)c3c2OC(C)(C)O3)CCC1=O (configuration not stated) ): 146 to 147 °C

For CN(C(=O)COc1onc(C(F)(F)F)c1-c1ccccc1)c1ccccc1 the compound record lists melting point as 93 to 94 °C

What the record says about CCC1CC(=O)C=C(c2ccc(OCC(=O)O)c(Cl)c2Cl)C1 (configuration not stated) : melting point is 163 to 165 °C

// melting point lookup, compound = Clc1c(Cl)c(Cl)c2[nH]c(NC3=NCCN3)nc2c1Cl , result: 310 °C

Looking up Nc1nc(N)c(-c2cc(Cl)cc(Cl)c2Cl)nc1Br , I found its melting point recorded as 222 to 224 °C

Record CC(=O)OCC1OC(n2cc(S)c(=O)[nH]c2=O)CC1(O)C(C)=O (configuration not stated) . Reported melting point: 159 to 163 °C

Form field melting point, entry C=CCC(C)(C)C(NC(=O)c1ccc(Cl)cc1)NC(=N[N+](=O)[O-])Nc1cccnc1 (configuration not stated) : 200 to 203 °C

Cc1cn(-c2ccc(C(=N)N)cc2)c(=O)n1-c1ccc(CCC(=O)OC(C)C)cc1 yielded melting point of 246 to 249 °C

Recorded result, NC1=NC(=O)N(C2CCCCC2)CC1Br (configuration not stated) , melting point: 152 to 156 °C

Looking up COc1c(/C=C/c2cc(/C=C/c3ccc4cc[nH]c4c3)n[nH]2)cccc1OCc1ccccn1 , I see its melting point listed as 109 to 114 °C

Just so you know, measured melting point for O=C(Cc1cccc(C(F)(F)F)c1)c1c(O)c2cccnc2n(-c2ccccc2)c1=O came out at 201 to 203 °C

Reported melting point for CCCCCCCCNC(=O)CCBr was 48 to 55 °C

Each recorded value in this set is attributed to a melting point compilation (Tetko et al.; mined from patent text by program, amines drawn as free bases though some values may be those of a salt).
